Where do the numbers come from? From paper PMC8777613.

Experiment: MTT dye reduction viability test, HaCaT
Assay type: cell-based, human
Details: human, HaCaT cells (immortal keratinocytes), HaCaT, 20 µM, 72 h, representative MTT result (Table S1 B)
# viability at 72 h, 20 µM per record follows

molecule="CCCCCCCCCCCCCCCCCC(=O)Oc1ccc2c(c1)C(=O)CC(c1ccccc1)O2 (stereo not drawn) [6-Stearic-Flavanone, 6-hydroxy-flavanone stearic ester]" endpoint_label="viability at 72 h, 20 µM" reported=82.5%
molecule="CCCCCC=CCC=CCCCCCCCC(=O)Oc1ccc2c(c1)C(=O)CC(c1ccccc1)O2 (stereo not drawn) [6-Linoleic-Flavanone, 6-hydroxy-flavanone linoleic ester]" endpoint_label="viability at 72 h, 20 µM" reported=93.8%
molecule="O=C1CC(c2ccccc2)Oc2ccc(O)cc21 (stereo not drawn) [6-Hydroxy-Flavanone, 6-hydroxy-flavanone, reference compound]" endpoint_label="viability at 72 h, 20 µM" reported=115%
molecule="CCCCCCCCC=CCCCCCCCC(=O)Oc1ccc2c(c1)C(=O)CC(c1ccccc1)O2 (stereo not drawn) [6-Oleic-Flavanone, 6-hydroxy-flavanone oleic ester]" endpoint_label="viability at 72 h, 20 µM" reported=70%
molecule="CCC=CCC=CCC=CCCCCCCCC(=O)Oc1ccc2c(=O)cc(-c3ccccc3)oc2c1 [7-Linolenic-Flavone, 7-hydroxy-flavone linolenic ester]" endpoint_label="viability at 72 h, 20 µM" reported=90.5%

Here is another molecule to look at.
Q. What value of viability at 72 h, 20 µM has been recorded for this entry: CC=CC=CC(=O)Oc1ccc2c(=O)cc(-c3ccccc3)oc2c1 [7-Sorbic-Flavone, 7-hydroxy-flavone sorbic ester]
A. 87.2%
